experiment: Tissue distribution in rats after oral administration; type: in vivo, male Sprague-Dawley rats; conditions: male, Sprague-Dawley, rat, kidney, PO 25 mg/kg, 7 h, average ±SD, read-out: Kidney concentration
measured-metric: concentration at 7 h (ng/g)
# unit: ng/g | format: bare number

What value of concentration at 7 h has been reported for the following molecule? CC(C)(O)CNC(=O)Cc1nc2cnc3[nH]ccc3c2n1[C@H]1CC[C@H](CC#N)CC1 19.9

* * *

experiment: Tissue distribution in mice after oral administration; type: in vivo, female C57Bl/6 mice; details: female, C57Bl/6, mouse, liver, oral 10 mg/kg, 0.5 h, mean ± SD, read-out: Liver concentration
measured-metric: concentration at 0.5 h (ng/g)
# unit: ng/g | format: bare number

What value of concentration at 0.5 h has been reported for the following compound? CC(C)(O)CNC(=O)Cc1nc2cnc3[nH]ccc3c2n1[C@H]1CC[C@H](CC#N)CC1 34.8
